Reference for the values: patent US20230167182A1

Measurement Target: T1, human IL6R-Fc protein (human, biotin-labeled in the ELISAs (sites not given))
T1 construct: In house made; also called biotin-labeled human IL6R-Fc protein
T1 sequence (chain, as listed by the source limits assumed): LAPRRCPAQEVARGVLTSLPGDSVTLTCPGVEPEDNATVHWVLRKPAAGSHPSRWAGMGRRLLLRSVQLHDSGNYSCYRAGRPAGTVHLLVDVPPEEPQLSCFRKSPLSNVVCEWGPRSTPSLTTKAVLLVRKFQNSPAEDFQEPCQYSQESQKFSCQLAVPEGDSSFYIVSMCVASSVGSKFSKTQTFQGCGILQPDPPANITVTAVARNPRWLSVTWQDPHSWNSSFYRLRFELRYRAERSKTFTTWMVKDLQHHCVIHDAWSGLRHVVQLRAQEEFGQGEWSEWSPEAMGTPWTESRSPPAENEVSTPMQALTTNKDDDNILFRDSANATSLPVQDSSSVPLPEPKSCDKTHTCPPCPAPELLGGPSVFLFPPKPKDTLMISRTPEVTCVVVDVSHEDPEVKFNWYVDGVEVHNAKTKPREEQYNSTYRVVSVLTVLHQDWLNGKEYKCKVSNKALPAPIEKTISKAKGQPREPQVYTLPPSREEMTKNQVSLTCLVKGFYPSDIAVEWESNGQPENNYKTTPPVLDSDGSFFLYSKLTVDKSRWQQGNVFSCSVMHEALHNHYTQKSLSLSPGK
Assay Comment: benchmark blocking ELISA: antibody pre-incubated with biotin-labeled human IL6R-Fc, added to plate-coated Tocilizumab (competitor: Tocilizumab)
Measurement Kind: pIC50
Scale explanation: pIC50 corresponds to minus log10 of a concentration expressed in moles per litre.

Here's what some known entries look like.
INSERT INTO results (binder, measurement_kind, value_reported) VALUES
  ('Tocilizumab (antibody, human IgG1, kappa, V domains shown, In house made; also called benchmark; Actemra) VH: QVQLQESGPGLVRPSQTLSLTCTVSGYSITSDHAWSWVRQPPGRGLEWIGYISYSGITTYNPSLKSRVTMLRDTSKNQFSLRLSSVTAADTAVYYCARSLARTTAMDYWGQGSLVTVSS VL: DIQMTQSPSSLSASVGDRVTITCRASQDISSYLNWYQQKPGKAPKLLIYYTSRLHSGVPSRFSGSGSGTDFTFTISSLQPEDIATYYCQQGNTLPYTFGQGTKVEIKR', 'pIC50', 9.06),
  ('Chimeric 1H7 (antibody, human IgG1, kappa, V domains shown, Mouse variable regions on human IgG1 / human kappa constant regions; also called chimeric antibody 1H7) VH: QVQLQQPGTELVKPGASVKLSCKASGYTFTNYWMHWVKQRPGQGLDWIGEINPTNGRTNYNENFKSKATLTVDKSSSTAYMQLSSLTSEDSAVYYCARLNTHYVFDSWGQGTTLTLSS VL: EIVLTQSPTTLAASPGEKITFTCSVSSSISSNYLHWYQQKPGFSPKLLISRTSTLASGVPARFSGSGSGTSYSLTIGTMEAEDVATYYCQQGSGIPFTFGSGTKLELKR', 'pIC50', 9.69),
  ('humanized antibody hu1H7-V5 (antibody, human IgG1, kappa, V domains shown, Human IgG1 / kappa) VH: QVQLVQSGAEVKKPGASVKVSCKASGYTFTNYWMHWVRQAPGQGLEWIGEINPTNGRTNYNENFKSRVTLTVDTSTSTVYMELSSLRSEDTAVYYCARLNTHYVFDSWGQGTLVTVSS VL: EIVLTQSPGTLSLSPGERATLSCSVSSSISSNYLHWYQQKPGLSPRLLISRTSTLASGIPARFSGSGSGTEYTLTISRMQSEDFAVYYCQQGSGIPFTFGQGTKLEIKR', 'pIC50', 9.44);

As a next step, examine the binder that follows.
QUERY: What value of measured pIC50 is listed for mouse anti-IL6R monoclonal antibody 1H7 (antibody, V domains shown, Mouse hybridoma mAb) VH: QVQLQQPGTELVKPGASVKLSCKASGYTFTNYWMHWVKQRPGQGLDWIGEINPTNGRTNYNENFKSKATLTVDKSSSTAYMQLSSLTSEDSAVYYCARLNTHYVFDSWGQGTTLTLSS VL: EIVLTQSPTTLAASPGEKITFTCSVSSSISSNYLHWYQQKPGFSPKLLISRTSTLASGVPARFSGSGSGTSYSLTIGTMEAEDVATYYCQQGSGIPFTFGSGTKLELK ?
RESULT: 9.62
